What follows is a record of pIC50 for PARP2 (Mus musculus (Mouse), UniProt O88554).
Hey, just a heads up that pIC50 is the negative log base 10 of the concentration in molar.

Worked cases, answers included:
>>> reading("O=C(CN1CCC(C(=O)c2ccc(F)cc2)CC1)NCc1nc2c(c(=O)[nH]1)CCCC2 [Example 10]")
6.15
>>> reading("COc1ccc(C(=O)C2CCN(CC(=O)NCc3nc4c(c(=O)[nH]3)COCC4)CC2)cc1 [Example 67]")
5.44
>>> reading("COc1ccc(C(=O)C2CCN(CC(=O)NCc3nc4c(c(=O)[nH]3)CCCC4)CC2)cc1 [Example 9]")
6.61

# context switch: different compound, same pIC50
Query string: State recorded pIC50 with PARP2 (Mus musculus (Mouse), UniProt O88554), entry O=C(CN1CCC(C(=O)c2ccc(OCCC3CC3)cc2)CC1)NCc1nc2c(c(=O)[nH]1)COCC2 [Example 89] , no comment.
Sequence (O88554 whole entry): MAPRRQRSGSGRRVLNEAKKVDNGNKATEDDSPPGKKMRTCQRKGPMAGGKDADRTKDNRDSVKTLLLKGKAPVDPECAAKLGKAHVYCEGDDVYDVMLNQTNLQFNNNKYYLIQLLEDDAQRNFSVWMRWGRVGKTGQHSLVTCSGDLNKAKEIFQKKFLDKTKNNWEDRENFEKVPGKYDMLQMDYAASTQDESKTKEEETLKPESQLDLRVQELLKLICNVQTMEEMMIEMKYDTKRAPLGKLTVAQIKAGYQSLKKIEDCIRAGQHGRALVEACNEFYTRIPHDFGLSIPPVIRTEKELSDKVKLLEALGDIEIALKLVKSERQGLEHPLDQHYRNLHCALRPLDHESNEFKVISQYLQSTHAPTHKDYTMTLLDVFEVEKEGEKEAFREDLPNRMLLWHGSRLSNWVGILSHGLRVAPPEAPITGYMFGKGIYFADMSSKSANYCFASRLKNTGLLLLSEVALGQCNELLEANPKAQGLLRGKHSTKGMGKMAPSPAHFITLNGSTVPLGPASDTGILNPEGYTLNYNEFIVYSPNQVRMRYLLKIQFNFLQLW
Result string: 6.04

====

What follows is a record of pIC50 for PARP2 (Mus musculus (Mouse), UniProt O88554).
Hey, just a heads up that pIC50 is the negative log base 10 of the concentration in molar.

>>> reading("O=C(CN1CCC(C(=O)c2ccc(Cl)cc2)CC1)NCc1nc2c(c(=O)[nH]1)COCC2")
5.59
>>> reading("COc1ccc(C(=O)C2CCN(CC(=O)NCc3cc4c(c(=O)[nH]3)COCC4)CC2)cc1")
5.94
>>> reading("Cc1ccc(C(=O)C2CCN(CC(=O)NCc3nc4c(c(=O)[nH]3)COCC4)CC2)cc1")
5.64
>>> reading("COc1ccc(C(=O)C2CCN(CC(=O)NCc3nc4c(c(=O)[nH]3)COCC4)CC2)cc1C")
5.37
>>> reading("CC(C)Oc1ccc(C(=O)C2CCN(CC(=O)NCc3nc4c(c(=O)[nH]3)COCC4)CC2)cc1")
5.68

# context switch: different compound, same pIC50
Query string: Dear colleague, please send me the reported pIC50 for O=C(CN1CCC(C(=O)c2ccc(OCC3CCC3)cc2)CC1)NCc1nc2c(c(=O)[nH]1)COCC2 when you can.
Result string: 6.05

====

targetOrSystem: tankyrase 2 protein PARP domain, TNKS2P (Homo sapiens (Human))
Sequence (Q9H2K2 959-1164): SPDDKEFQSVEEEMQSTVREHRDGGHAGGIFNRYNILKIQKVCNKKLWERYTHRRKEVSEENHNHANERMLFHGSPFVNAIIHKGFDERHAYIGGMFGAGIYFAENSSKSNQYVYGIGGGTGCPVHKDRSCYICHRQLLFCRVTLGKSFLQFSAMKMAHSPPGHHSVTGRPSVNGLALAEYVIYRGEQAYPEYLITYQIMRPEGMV
Measured IC50 by item
Quick note: give the figure in nM, leave out the unit.

>>> reading("O=C(c1ccc(F)cc1)C1CCN(CC(=O)N(CCF)Cc2nc3c(c(=O)[nH]2)COCC3)CC1")
19

Query string: State recorded IC50 with tankyrase 2 protein PARP domain, TNKS2P (Homo sapiens (Human)), entry COc1ccc(C(=O)C2CCN(CC(=O)NCc3cc4c(c(=O)[nH]3)COCC4)CC2)cc1 , no comment.
Result string: 27

Query string: State recorded IC50 with tankyrase 2 protein PARP domain, TNKS2P (Homo sapiens (Human)), entry COc1ccc2c(C3CCN(CC(=O)NCc4nc5c(c(=O)[nH]4)COCC5)CC3)n[nH]c2c1 , no comment.
Result string: 311

====

What follows is a record of pIC50 for human tankyrase 1 PARP catalytic domain, TNKS1P (Homo sapiens (Human)).
Hey, just a heads up that pIC50 is the negative log base 10 of the concentration in molar.

Worked cases, answers included:
>>> reading("COc1cccc(C(=O)C2CCN(CC(=O)N(Cc3nc4c(c(=O)[nH]3)COCC4)CC(F)F)CC2)c1")
7.31
>>> reading("C[C@@H](c1ccccc1)N(Cc1nc2c(c(=O)[nH]1)COCC2)C(=O)CN1CCC(C(=O)c2ccc(F)cc2)CC1")
6.68
>>> reading("COc1ccc(C(=O)C2CCN(CC(=O)NCc3cc4c(c(=O)o3)COCC4)CC2)cc1")
6.48

Query string: Dear colleague, please send me the reported pIC50 for CC(c1ccc(F)cc1F)N(Cc1nc2c(c(=O)[nH]1)COCC2)C(=O)CN1CCC(C(=O)c2ccc(F)cc2)CC1 (stereo not shown) when you can.
Result string: 6.81
